Below, each of the compounds is paired with its reported composite z-score value.
- Protocol Summary: small molecules captured by biotinylated probe aFGF10 – biochemical, small-molecule microarray, fluorescence 635/667, stem cell growth factor project, primary screen (AID 1071);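 note: score merges 667 nm spot intensity and signal to noise from triplicate slides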
- Condition Info: higher = more signal
Observable: composite z-score

{"Compound": "COc1ccc([Si](C)(C)[C@H]2[C@H](CC(=O)N3CCC[C@H]3CO)O[C@@]3(C(=O)N(Cc4ccc(N5CCOC5=O)cc4)c4ccccc43)[C@@H]2C)cc1", "Observable": "composite z-score", "Endpoint Result": 0.44}
{"Compound": "CC(c1ccccc1)C(O)C1C=CC2C(=O)N(C)C(=O)C2N1Nc1ccccc1 (stereo not drawn)", "Observable": "composite z-score", "Endpoint Result": 0.796}
{"Compound": "COc1ccc(C#Cc2ccc3c(c2)[C@]2(C(=O)N3)[C@H](c3ccc(O)cc3)N3[C@H](c4ccccc4)[C@H](c4ccccc4)OC(=O)[C@H]3[C@@H]2C(=O)Nc2nc3ccccc3s2)cc1", "Observable": "composite z-score", "Endpoint Result": 0.534}
{"Compound": "[N-]=[N+]=Nc1ccccc1C[C@@]1(C(N)=O)N=C(c2ccc(OCCCO)cc2)O[C@@H]1c1ccccc1N=[N+]=[N-]", "Observable": "composite z-score", "Endpoint Result": 0.684}
{"Compound": "CCCCCCc1nc(Cc2cc(OC)c(OC)c(OC)c2)cc2c1[Si](C(C)C)(C(C)C)OC2", "Observable": "composite z-score", "Endpoint Result": 0.0277}
{"Compound": "NC(=O)NCC#Cc1ccc2c(c1)[C@]1(C(=O)N2)[C@H](c2ccccc2OCCO)N2[C@H](c3ccccc3)[C@H](c3ccccc3)OC(=O)[C@H]2[C@@H]1C(=O)NC[C@H](O)c1ccccc1", "Observable": "composite z-score", "Endpoint Result": 0.262}
{"Compound": "COc1ccc(CCNC(=O)[C@@]2(Cc3ccccc3I)c3ccccc3C(=O)N(C3CCCCC3)[C@H]2c2ccc(CO)cc2)cc1", "Observable": "composite z-score", "Endpoint Result": -0.0337}
{"Compound": "COc1ccc([C@H]2OC[C@@H]3C[C@H](Cc4ccccc4)C(=O)N32)cc1", "Observable": "composite z-score", "Endpoint Result": 0.219}
